Residues, ends and D or L forms follow the SMILES beside them. *: point of attachment. Cbz = O=C(OCc1ccccc1)*; Bn = c1ccc(C*)cc1
MEASURED ATTRIBUTE: melting point

>  <COMPOUND>
CCNC(=O)C(COCc1ccccc1)NC(=O)C(Cc1ccc(OCc2ccccc2)cc1)NC(=O)C(Cc1c[nH]cn1)NC(=O)OCc1ccccc1 (stereo not drawn) (Cbz-His-Tyr(Bn)-Ser(Bn)-NHEt; configuration not given here)

>  <READOUT VALUE>
182 to 188 °C

$$$$
>  <COMPOUND>
O=C1Nc2cc(Cl)c(Cl)cc2C1c1ccccc1Cl (stereo not drawn)

>  <READOUT VALUE>
198 to 201 °C

$$$$
>  <COMPOUND>
N#CC1(C#N)CN=C(O)C(c2cc(O)c(O)c([N+](=O)[O-])c2)=N1

>  <READOUT VALUE>
> 300 °C

$$$$
>  <COMPOUND>
C#CCn1cc(C#N)c(C=O)c1

>  <READOUT VALUE>
114 °C

$$$$
>  <COMPOUND>
CS(=O)(=O)c1cc(Br)ccc1CN1C(=O)c2ccccc2C1=O

>  <READOUT VALUE>
188 to 190 °C

$$$$
>  <COMPOUND>
O=C1CCN(CCc2ccccc2)CC1C(c1ccccc1)c1ccccc1 (stereo not drawn)

>  <READOUT VALUE>
73 to 76 °C

$$$$
>  <COMPOUND>
O=C(O)CCCCCc1nn(-c2ccc(F)cc2)c2c1CCC2

>  <READOUT VALUE>
64 to 67 °C

$$$$
>  <COMPOUND>
CC(C)NC(=O)c1cc2[nH]cnc2c(Cl)c1NC(=O)c1cc(C(F)(F)F)nn1-c1ncccc1Cl

>  <READOUT VALUE>
200 to 203 °C

$$$$
